All figures here come from patent US20100003191A1.

# MEASUREMENT_NOTES: In vivo radioactivity biodistribution experiment in normal mice (Example 1, Table 13)
# Parameters: species or system ddY mice
# RECORDED_CONDITIONS: spleen, 30 min after injection
MEASUREMENT_NAME: Biodistribution of radioactivity, Spleen

Sample records with Biodistribution of radioactivity, Spleen:
{"COMPOUND": "O=C1/C(=C/c2ccc(O)cc2)Oc2ccc([125I])cc21 [[^125I]20]", "Biodistribution of radioactivity, Spleen": "0.69 (0.14) % injected dose per gram"}
{"COMPOUND": "CNc1ccc(/C=C2\\Oc3ccc([125I])cc3C2=O)cc1 [[^125I]12]", "Biodistribution of radioactivity, Spleen": "0.86 (0.14) % injected dose per gram"}
{"COMPOUND": "Nc1ccc(/C=C2\\Oc3ccc([125I])cc3C2=O)cc1 [[^125I]14]", "Biodistribution of radioactivity, Spleen": "0.84 (0.29) % injected dose per gram"}
{"COMPOUND": "COc1ccc(/C=C2\\Oc3ccc([125I])cc3C2=O)cc1 [[^125I]17]", "Biodistribution of radioactivity, Spleen": "0.48 (0.10) % injected dose per gram"}

Tell me measured Biodistribution of radioactivity, Spleen for CN(C)c1ccc(/C=C2\Oc3ccc([125I])cc3C2=O)cc1 [[^125I]7] please.
0.51 (0.10) % injected dose per gram
